The measurements presented in this section are drawn from the supplement of paper PMC11208160.

assay: recombinant barcode read abundance after kanamycin selection (control-corrected) (log10(CPM+1)); higher = more efficient recombination; sequences stand for … in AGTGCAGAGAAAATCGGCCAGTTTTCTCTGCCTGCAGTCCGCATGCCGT…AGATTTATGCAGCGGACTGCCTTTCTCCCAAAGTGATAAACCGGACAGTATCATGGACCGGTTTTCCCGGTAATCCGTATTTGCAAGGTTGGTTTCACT; site = the 11-nt target
value_kind: recombinant barcode read abundance (log10)

{"item_sequence": "ACGTCCACTTGGGTTCTAACCTGTTGCCA (site GGAAGGTCTAT)", "observed_result": 0.025}
{"item_sequence": "GAGGAACCTTGGGTTCTAACCTGTTGCCT (site CAGGAACCTAG)", "observed_result": 1.28}
{"item_sequence": "TCTGGGGCTTGGGTTCTAACCTGTTGCAG (site TCTGGGGCTCC)", "observed_result": 0.189}
{"item_sequence": "CGGACGTCTTGGGTTCTAACCTGTTGCCT (site CGGACGCCTAG)", "observed_result": 0.0491}
{"item_sequence": "GCGTGAGCTTGGGTTCTAACCTGTTGCCT (site GCATGAGCTAG)", "observed_result": 1.07}
{"item_sequence": "CACCCACCTTGGGTTCTAACCTGTTGCCT (site AACCCACCTAG)", "observed_result": 0.0311}
{"item_sequence": "TTCTACACTTGGGTTCTAACCTGTTGCAT (site GAACCTTCTCC)", "observed_result": 0.107}
{"item_sequence": "TGTAATTCTTGGGTTCTAACCTGTTGCCT (site TGTAATGCTAG)", "observed_result": 0}
{"item_sequence": "ATAATAGCTTGGGTTCTAACCTGTTGCAT (site ATAATAGCTAT)", "observed_result": 2.02}
{"item_sequence": "TTCAAGGCTTGGGTTCTAACCTGTTGCCT (site TTCAAGGCTAG)", "observed_result": 0.17}
{"item_sequence": "TGGCAGACTTGGGTTCTAACCTGTTGCCT (site TGGCAGGCTAG)", "observed_result": 0.0442}
{"item_sequence": "ATCTGGGCTTGGGTTCTAACCTGTTGCCT (site AGCTGGGCTAG)", "observed_result": 0.123}
{"item_sequence": "GGGCCCGCTTGGGTTCTAACCTGTTGCTA (site GGGCCCGCTTA)", "observed_result": 1.68}
{"item_sequence": "GAAATAACTTGGGTTCTAACCTGTTGCGT (site AGCCCTCCTCT)", "observed_result": 0.169}
{"item_sequence": "GTATGTGCTTGGGTTCTAACCTGTTGCGG (site GTATGAGCTCC)", "observed_result": 0.689}
{"item_sequence": "CGACATACTTGGGTTCTAACCTGTTGCGT (site GGACATGCTAC)", "observed_result": 0.0511}
{"item_sequence": "CAGTTCGCTTGGGTTCTAACCTGTTGCCT (site CAGTTGGCTAG)", "observed_result": 0.0461}
{"item_sequence": "ACGCACCCTTGGGTTCTAACCTGTTGCCA (site ACGAGCCCTTG)", "observed_result": 0.123}
{"item_sequence": "TGGTACCCTTGGGTTCTAACCTGTTGCTA (site TGGTACCCTTA)", "observed_result": 1.36}
{"item_sequence": "TCCCGACCTTGGGTTCTAACCTGTTGCCT (site TCCCGAACTAG)", "observed_result": 0.135}
{"item_sequence": "ATTTCCACTTGGGTTCTAACCTGTTGCCT (site AAGTCCACTAG)", "observed_result": 0.176}
{"item_sequence": "GATTATTCTTGGGTTCTAACCTGTTGCCT (site GATTATTCTAG)", "observed_result": 0}
{"item_sequence": "CTAAAGTCTTGGGTTCTAACCTGTTGCCC (site CTAAAGTCTGT)", "observed_result": 0.136}
{"item_sequence": "AATGTATCTTGGGTTCTAACCTGTTGCCT (site AATGGATCTAG)", "observed_result": 0.0435}
{"item_sequence": "GCACGCCCTTGGGTTCTAACCTGTTGCCT (site GCACGCCCTAG)", "observed_result": 0.711}
{"item_sequence": "AAGGTCACTTGGGTTCTAACCTGTTGCCT (site ACGGTCACTAG)", "observed_result": 0.816}
{"item_sequence": "GGCGTAGCTTGGGTTCTAACCTGTTGCCT (site GCCGTAGCTAG)", "observed_result": 0.624}
{"item_sequence": "GAGAGCACTTGGGTTCTAACCTGTTGCCA (site GAGAGCACTTG)", "observed_result": 1.23}
{"item_sequence": "CTAAATACTTGGGTTCTAACCTGTTGCTT (site CTATATACTAA)", "observed_result": 0.107}
{"item_sequence": "TAGAAGACTTGGGTTCTAACCTGTTGCTT (site TAGAAGACTGA)", "observed_result": 0.0968}
{"item_sequence": "GAGGACTCTTGGGTTCTAACCTGTTGCCC (site GAGGACTCTCG)", "observed_result": 0.136}
{"item_sequence": "GGTCATCCTTGGGTTCTAACCTGTTGCCT (site GGTCATGCTAG)", "observed_result": 0.0238}
{"item_sequence": "ATGAAGACTTGGGTTCTAACCTGTTGCCT (site ATTAAGACTAG)", "observed_result": 1.12}
{"item_sequence": "GTATGAACTTGGGTTCTAACCTGTTGCCT (site GTATGATCTAG)", "observed_result": 0.119}
{"item_sequence": "TCGGGGTCTTGGGTTCTAACCTGTTGCCT (site TCGGGGTCTAG)", "observed_result": 1.27}
{"item_sequence": "GAAGTGCCTTGGGTTCTAACCTGTTGCCT (site GAAGCGCCTAG)", "observed_result": 0.0713}
{"item_sequence": "GGTACTACTTGGGTTCTAACCTGTTGCCA (site GGTACTACTTG)", "observed_result": 0.152}
{"item_sequence": "CTGGGCCCTTGGGTTCTAACCTGTTGCCT (site CTGCGCCCTAG)", "observed_result": 0.0544}
{"item_sequence": "GCGACTCCTTGGGTTCTAACCTGTTGCAT (site GCGGCTCCTAT)", "observed_result": 0.14}
{"item_sequence": "GCCGAGCCTTGGGTTCTAACCTGTTGCCA (site GCCGAGCCTTG)", "observed_result": 0.21}
{"item_sequence": "CCGCCTCCTTGGGTTCTAACCTGTTGCAT (site CCGCCTCCTAT)", "observed_result": 0.0412}
{"item_sequence": "CGAACTACTTGGGTTCTAACCTGTTGCGT (site CGAACTACTAA)", "observed_result": 0.22}

###

Some sequences, each annotated with its measured recombinant UMI read abundance (log10).
experiment: recombinant UMI read abundance after kanamycin selection (control-corrected) (log10(CPM+1)); higher = more efficient recombination; extreme values may be limits of the assay; sequences stand for … in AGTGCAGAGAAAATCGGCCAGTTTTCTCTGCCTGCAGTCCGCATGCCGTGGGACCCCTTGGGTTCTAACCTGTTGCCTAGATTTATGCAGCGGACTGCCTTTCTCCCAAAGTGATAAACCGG…AGGTTGGTTTCACT; site = the 11-nt donor

{"item_sequence": "GCAGTCGCATGGACCGGTTTTCCCGGTAATCCGTATTTGCG (site GCAGTCGCTCG)", "recombinant UMI read abundance (log10)": 0.764}
{"item_sequence": "GATTAACCATGGACCGGTTTTCCCGGTAATCCGTATTTGCT (site GATTAGCCTAG)", "recombinant UMI read abundance (log10)": 0}
{"item_sequence": "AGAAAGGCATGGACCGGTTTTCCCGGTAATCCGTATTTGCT (site AGGAAGGCTAG)", "recombinant UMI read abundance (log10)": 1.73}
{"item_sequence": "ATGCAAGCATGGACCGGTTTTCCCGGTAATCCGTATTTGAG (site ATCCAAGCTCT)", "recombinant UMI read abundance (log10)": 0.701}
{"item_sequence": "GACGAACCATGGACCGGTTTTCCCGGTAATCCGTATTTGGT (site GACGAACCTAC)", "recombinant UMI read abundance (log10)": 0}
{"item_sequence": "ACTAGCGCATGGACCGGTTTTCCCGGTAATCCGTATTTGGT (site ACTAGGGCTAC)", "recombinant UMI read abundance (log10)": 0.00433}
{"item_sequence": "GCGAAAACATGGACCGGTTTTCCCGGTAATCCGTATTTGGT (site GCGAAAACTAA)", "recombinant UMI read abundance (log10)": 0.0141}
{"item_sequence": "ACGTCCTCATGGACCGGTTTTCCCGGTAATCCGTATTTGGT (site ACGTCCTCTAC)", "recombinant UMI read abundance (log10)": 1.51}
{"item_sequence": "TATTTGGCATGGACCGGTTTTCCCGGTAATCCGTATTTGTC (site TATTTGGCTCA)", "recombinant UMI read abundance (log10)": 0.00726}
